// inhibition lookup, one value per entry
protocol_description: 384-well plate pilot, post-Golgi transport modulator project, inhibition of yeast transport mutant growth (AID 636)
setup_conditions: absorbance 615 nm, about 18 h, stronger effect = higher value
Only the number, expressed in %, is required.

Past entries and their recorded results:
# compound, inhibition, %
records = [
    ("Cc1c(C)[n+](=O)c2c(n1[O-])CCCCC2", -1.43),
    ("COC(=O)c1c(N)sc(C(=O)N2CCOCC2)c1C", -0.4),
]

Request: Please report the measured inhibition for O=C(Nc1ccc(N2CCOCC2)cc1)Nc1ccc2nc(-c3ccco3)c(-c3ccco3)nc2c1
Response: -7.73

Request: Please report the measured inhibition for COc1ccc(OC)c(N(CC(=O)Nc2cccnc2)S(=O)(=O)c2ccc(OC)c(OC)c2)c1
Response: -6.58

Request: Please report the measured inhibition for CCOc1ccc(C(CC(=O)O)NC(=O)c2ccco2)cc1OC (stereo not given)
Response: -6.76

Request: Please report the measured inhibition for Cc1ccccc1C(=O)N1CCC(C(=O)Nc2ccc(S(=O)(=O)N3CCCC3)cc2)CC1
Response: -4.55

Request: Please report the measured inhibition for COc1ccc(CCN2C(=O)CCC2(C)C(=O)NCc2cccnc2)cc1OC (stereo not given)
Response: -2.86

----------
protocol_description: reversal of MRP1-mediated doxorubicin resistance, pilot screen, H69AR cells, doxorubicin co-treatment (AID 601)
setup_conditions: H69AR cells + 2 uM doxorubicin, CellTiter-Glo, 72 h; measured here: viability with 2 uM doxorubicin; at 10 µM; stronger effect = lower value
// viability lookup, one value per entry
Only the number, expressed in %, is required.

# chemical_structure, reported
measured = [
    ("COc1ccccc1C(=O)NCC(=O)Nc1ccccc1", 100),
    ("Cc1nc(N)[nH]c(=O)c1CCC(=O)OCC(C)C", 93.5),
    ("CCc1cn([C@H]2C[C@H](O)[C@@H](CO)O2)c(=O)[nH]c1=O", 76.6),
    ("CC(C)Cc1nnc(NC(=O)CCC(=O)N2CCOCC2)s1", 95.9),
]

Request: Please report the measured viability for O=C(c1ccc(S(=O)(=O)N2CCOCC2)cc1)N1CCc2ccccc2C1
Response: 88.2

Request: Please report the measured viability for O=c1oc2ccccc2c(N2CCCCC2)c1CN1CCCCC1
Response: 83.3

Request: Please report the measured viability for COc1nc(OC)nc(N2CCC(C(=O)NCc3cccs3)CC2)n1
Response: 93.3

Request: Please report the measured viability for CC(=O)NCCC(=O)Nc1ccc(C)c(F)c1
Response: 108

----------
// viability lookup, one value per entry
protocol_description: reversal of MRP1-mediated doxorubicin resistance, pilot screen, H69AR cells, doxorubicin co-treatment (AID 601)
setup_conditions: H69AR cells, CellTiter-Glo, 72 h; compound alone cytotoxicity; at 10 µM
Only the number, expressed in %, is required.

Past entries and their recorded results:
# molecule, viability (%)
rows = [
    ("Nc1nc2ccc(OC(F)(F)F)cc2s1", 71.9),
    ("CCOc1ccc(-c2cn(S(=O)(=O)c3cccc4nsnc34)nc2N)cc1", 84.8),
    ("Cc1ccccc1C(=O)NC1CCN(Cc2nnnn2Cc2ccccc2)CC1", 98.2),
]

Field: next molecule
Request: Please report the measured viability for CC(C)CCNC(=O)C(C)N(Cc1ccc(F)cc1)C(=O)c1ccc(CN2CCCCC2)o1 (centres undefined)
Response: 95.4

----------
protocol_description: reversal of MRP1-mediated doxorubicin resistance, pilot screen, H69AR cells, doxorubicin co-treatment (AID 601)
setup_conditions: H69AR cells + 2 uM doxorubicin, CellTiter-Glo, 72 h; measured here: viability with 2 uM doxorubicin; at 10 µM; stronger effect = lower value
Could you please mark condition met for values of viability below 90% and condition not met for values at or above it?

Solved entries (count: 8):
# compound, discrete_label
records = [
    ("Oc1c(I)cc(Cl)c2cccnc12", "condition met"),
    ("Cc1cc(=O)oc(C)c1C(=O)O", "condition met"),
    ("Cc1cc(CN2CCN(CCC#N)CC2)c(O)c(C2(C)CCCCC2)c1", "condition met"),
    ("Cc1ccc(-c2nn3c(C)nnc3s2)cc1N", "condition met"),
    ("Cc1nc2cc(NC(=O)N3c4ccccc4CC3C)ccc2o1 (stereo unspecified)", "condition met"),
    ("COCCn1c(N)c(C(=O)Nc2sc3c(c2C(=O)OC)CCCC3)c2nc3ccccc3nc21", "condition not met"),
    ("Cc1nc(C)c(C(=O)Nc2ccc(Oc3ccccc3)cc2)o1", "condition met"),
    ("CC1(C)S[C@@H]2[C@H](NC(=O)[C@H](C(=O)O)c3ccsc3)C(=O)N2[C@H]1C(=O)O", "condition not met"),
]

Request: Does CCC1CCCCN1C(=O)C1CC(c2cc(Cl)c(OC)cc2OC)=NO1 (stereo unspecified) have viability strictly under 90%?
Response: condition not met

Request: Does O=C(CN1C(=O)CC(c2ccccc2)=Nc2ccccc21)NCc1ccco1 have viability strictly under 90%?
Response: condition met

Request: Does Clc1ccc(OCc2nnc(SCCN3CCCCC3)n2Cc2ccco2)cc1 have viability strictly under 90%?
Response: condition met

Request: Does CCC(C)n1ncn(-c2ccc(N3CCN(c4ccc(OCC5COC(Cn6cncn6)(c6ccc(Cl)cc6Cl)O5)cc4)CC3)cc2)c1=O (stereo unspecified) have viability strictly under 90%?
Response: condition met

Request: Does CCSc1nnc(NC(=O)c2cc(C)oc2C)s1 have viability strictly under 90%?
Response: condition met

Request: Does COc1cccc(NS(=O)(=O)c2ccc3[nH]cc(C(=O)NC4CC4)c(=O)c3c2)c1 have viability strictly under 90%?
Response: condition met

Request: Does COc1cccc(OC)c1OCCCSc1nc(C)cc(=O)[nH]1 have viability strictly under 90%?
Response: condition not met

Request: Does O=C(Nc1ccc(N2CCCC2)cc1)c1cccc(F)c1 have viability strictly under 90%?
Response: condition met

----------
// differential viability (reversal) lookup, one value per entry
protocol_description: reversal of MRP1-mediated doxorubicin resistance, pilot screen, H69AR cells, doxorubicin co-treatment (AID 601)
setup_conditions: H69AR cells + 2 uM doxorubicin, CellTiter-Glo, 72 h; at 10 µM; stronger effect = higher value
Only the number, expressed in %, is required.

Past entries and their recorded results:
# compound, differential viability (reversal) [%]
measured = [
    ("COCCOC(=O)C1=C(C)NC(C)=C(C(=O)OC(C)C)C1c1cccc([N+](=O)[O-])c1 (stereo unspecified)", -19),
    ("CC(C)(C)N=C1NC(=NC(C)(C)C)c2ccccc21", -11.5),
    ("COC(=O)Cc1c(C)c2ccc(OCC(=O)N3CCOCC3)cc2oc1=O", 12.4),
    ("CCSC(SCC)[C@H](O)[C@@H](O)[C@H](O)[C@H](O)CO", 6.02),
    ("CCn1c(SCC(=O)N2CCN(c3ccc(Cl)cc3)CC2)nc2ccccc2c1=O", -12.9),
]

Field: next compound
Request: Please report the measured differential viability (reversal) for O=C(COC(=O)c1cc(S(=O)(=O)N2CCOCC2)ccc1O)NCC1CCCO1 (stereo unspecified)
Response: -3.47

----------
protocol_description: 384-well plate pilot, post-Golgi transport modulator project, inhibition of yeast transport mutant growth (AID 636)
setup_conditions: absorbance 615 nm, about 18 h
The source made the active and inactive calls. No stated cut-off is given here; in the data, active means inhibition above about 31%; inactive means the rest.
Permitted responses: active, inactive

Solved entries (count: 5):
# compound, discrete_label
records = [
    ("CN=c1sc2ccccc2n1CC(O)COCc1ccco1 (stereo unspecified)", "inactive"),
    ("CC(=O)[C@H]1CC[C@H]2[C@@H]3CCC4=CC(=O)CC[C@]4(C)[C@H]3CC[C@]12C", "inactive"),
    ("COc1ccccc1N1CCN(Cc2nc(N)nc(Nc3ccc(C)c(Cl)c3)n2)CC1", "inactive"),
    ("O=C1C(Cl)=C(NCC2CCCO2)C(=O)N1CCc1ccccc1 (stereo unspecified)", "inactive"),
    ("Cc1cnc(NC(=O)CSc2nnc(-c3ccccc3)n2Cc2ccccc2)s1", "inactive"),
]

Now turn to the next compound.
Request: Write down the call the test reported for this compound. Item: Cc1cccc(Nc2ncc3c(n2)CC(c2ccco2)CC3=O)c1 (stereo unspecified)
Response: inactive

----------
protocol_description: 384-well plate pilot, post-Golgi transport modulator project, inhibition of yeast transport mutant growth (AID 636)
setup_conditions: absorbance 615 nm, about 18 h, stronger effect = higher value
property_name: inhibition (%)
Only the number, expressed in %, is required.

# molecule, value_unit, inhibition
records = [
    ("COc1ccc(C(=O)Nn2c(SCC(=O)NCC3CCCO3)nc3ccccc3c2=O)cc1 (centres undefined)", "%", -6.53),
]

Request: Please report the measured inhibition for COc1ccc2c(c1)c1c(n2C(C)=O)C(OC(C)=O)=NCC1
Response: -5.39

Request: Please report the measured inhibition for C/C=C(\C)c1nnc(NC(=O)OCC)s1
Response: -2.84

Request: Please report the measured inhibition for CCc1ccc(NC(=O)c2cc(-c3ccco3)on2)cc1
Response: -1.45
